Reference source: ChEMBL document CHEMBL1128478

study.target: Endothelin receptor type B (Rattus norvegicus)
Sequence (P21451 whole entry): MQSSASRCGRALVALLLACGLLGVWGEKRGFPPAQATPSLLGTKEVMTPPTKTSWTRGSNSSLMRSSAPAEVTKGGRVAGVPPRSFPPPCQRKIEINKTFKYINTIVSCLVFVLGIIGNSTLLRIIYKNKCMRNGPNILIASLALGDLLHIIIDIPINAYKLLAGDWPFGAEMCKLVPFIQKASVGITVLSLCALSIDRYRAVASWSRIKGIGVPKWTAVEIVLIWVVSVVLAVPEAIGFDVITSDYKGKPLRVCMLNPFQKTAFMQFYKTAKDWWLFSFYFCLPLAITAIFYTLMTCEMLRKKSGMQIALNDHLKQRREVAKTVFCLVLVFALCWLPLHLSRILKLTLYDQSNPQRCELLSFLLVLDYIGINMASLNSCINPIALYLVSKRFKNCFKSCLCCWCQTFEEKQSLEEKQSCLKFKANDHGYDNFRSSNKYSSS
test.name: Binding affinity against endothelin B receptor rat cerebellar membranes.
measured.property: IC50

query: Look at this substance and give its reported IC50. Ac-FFDIIW-OH
result: 20 nM

----------
study.target: Endothelin receptor type B (Rattus norvegicus)
test.name: Binding affinity against endothelin B receptor rat cerebellar membranes.
Numbered stars: 1 amine (or outer) side, 2 acyl side, 3 side chain; on linkers, the order of the positions; unused ones are H or OH. Square brackets hold non-standard residues; d marks the D form. Peptide text beside a SMILES is read from it. X4 = Cc1c(C)c(C)c(C[C@@H](N[*:1])C(=O)[*:2])c(C)c1C; Dip = N[C@H](C(=O)O)C(c1ccccc1)c1ccccc1; CO = O=C([*:1])[*:2]
measured.property: log10(IC50) (log10 of the value in nM)
Would you kindly interpret these values as log10 of IC50 expressed in nM?

Before answering, review these 3 worked examples.
CC[C@H](C)[C@@H]1NC(=O)[C@H](CC(=O)O)NC(=O)[C@H](CC(C)C)NC(=O)[C@@H](C(c2ccccc2)c2ccccc2)NC(=O)[C@H](Cc2c[nH]c3ccccc23)NC(=O)[C@H]([C@@H](C)CC)NC1=O	3.20
CC[C@H](C)[C@H](NC(=O)[C@H](CC1CCCCC1)NC(=O)[C@H](CC(=O)O)NC(=O)[C@H](CC(C)C)NC(=O)[C@H](NC(C)=O)C(c1ccccc1)c1ccccc1)C(=O)N[C@@H](Cc1c[nH]c2ccccc12)C(=O)O	2.32
CC[C@H](C)[C@H](NC(=O)[C@H](CC(=O)O)NC(=O)[C@H](CC(C)C)NC(=O)[C@@H](NC(=O)NC)C(c1ccccc1)c1ccccc1)C(=O)N[C@H](C(=O)N[C@@H](Cc1c[nH]c2ccccc12)C(=O)O)[C@@H](C)CC ({NHMe-CO}-[Dip]LDIIW-OH)	2.15

Hi, could you look up log10(IC50) for each item in my list?
1. CC[C@H](C)[C@H](NC(=O)[C@H](CC(=O)O)NC(=O)[C@H](CC(C)C)NC(=O)[C@@H](Cc1c(C)c(C)c(C)c(C)c1C)NC(C)=O)C(=O)N[C@H](C(=O)N[C@@H](Cc1c[nH]c2ccccc12)C(=O)O)[C@@H](C)CC (Ac-[X4]LDIIW-OH)
2. CC[C@H](C)[C@H](NC(=O)[C@H](Cc1ccccc1)NC(=O)[C@H](CC(=O)O)NC(=O)[C@H](CC(C)C)NC(=O)[C@@H](NC(C)=O)C(c1ccccc1)c1ccccc1)C(=O)N[C@@H](Cc1c[nH]c2ccccc12)C(=O)O (Ac-[Dip]LDFIW-OH)
3. CC[C@H](C)[C@H](NC(=O)[C@H](CC(=O)O)NC(=O)[C@H](CCCNC(=N)N)NC(=O)[C@H](NC(C)=O)C(c1ccccc1)c1ccccc1)C(=O)N[C@H](C(=O)N[C@@H](Cc1c[nH]c2ccccc12)C(=O)O)[C@@H](C)CC

result:
1: 3.38; 2: 1.75; 3: 1.00

----------
test.name: Relative affinities for rat endothelin B receptor and human endothelin B receptor
Parameters: reference not given here
Square brackets hold non-standard residues; d marks the D form. Peptide text beside a SMILES is read from it. * marks the point of attachment. Dip = N[C@H](C(=O)O)C(c1ccccc1)c1ccccc1; Bz = O=C(c1ccccc1)*
measured.property: Ratio
Answers are plain numbers.

I would be grateful if you could provide Ratio for each of the following entries.
1. CC[C@H](C)[C@H](NC(=O)[C@H](Cc1ccccc1)NC(=O)[C@H](CC(=O)O)NC(=O)[C@H](CC(C)C)NC(=O)[C@@H](NC(C)=O)C(c1ccccc1)c1ccccc1)C(=O)N[C@@H](Cc1c[nH]c2ccccc12)C(=O)O (Ac-[Dip]LDFIW-OH)
2. CC[C@H](C)[C@H](NC(=O)[C@H](CC(=O)O)NC(=O)[C@H](CC(C)C)NC(=O)[C@@H](NC(=O)c1ccccc1)C(c1ccccc1)c1ccccc1)C(=O)N[C@H](C(=O)N[C@@H](Cc1c[nH]c2ccccc12)C(=O)O)[C@@H](C)CC (Bz-[Dip]LDIIW-OH)
3. CC[C@H](C)[C@H](NC(=O)[C@H](CC(=O)O)NC(=O)[C@H](CCCNC(=N)N)NC(=O)[C@@H](NC(C)=O)C(c1ccccc1)c1ccccc1)C(=O)N[C@H](C(=O)N[C@@H](Cc1c[nH]c2ccccc12)C(=O)O)[C@@H](C)CC
4. CC[C@H](C)[C@H](NC(=O)[C@H](Cc1ccccc1)NC(=O)[C@H](CC(C)C)NC(=O)[C@@H](NC(C)=O)C(c1ccccc1)c1ccccc1)C(=O)N[C@H](C(=O)N[C@@H](Cc1c[nH]c2ccccc12)C(=O)O)[C@@H](C)CC (Ac-[Dip]LFIIW-OH)
5. CC[C@H](C)[C@H](NC(=O)[C@H](CCC(=O)O)NC(=O)[C@H](CC(C)C)NC(=O)[C@@H](NC(C)=O)C(c1ccccc1)c1ccccc1)C(=O)N[C@H](C(=O)N[C@@H](Cc1c[nH]c2ccccc12)C(=O)O)[C@@H](C)CC (Ac-[Dip]LEIIW-OH)

result:
1. 16
2. 147
3. 59
4. 17
5. 95

----------
study.target: Endothelin receptor type B (Homo sapiens, UniProt P24530)
Sequence (P24530 whole entry): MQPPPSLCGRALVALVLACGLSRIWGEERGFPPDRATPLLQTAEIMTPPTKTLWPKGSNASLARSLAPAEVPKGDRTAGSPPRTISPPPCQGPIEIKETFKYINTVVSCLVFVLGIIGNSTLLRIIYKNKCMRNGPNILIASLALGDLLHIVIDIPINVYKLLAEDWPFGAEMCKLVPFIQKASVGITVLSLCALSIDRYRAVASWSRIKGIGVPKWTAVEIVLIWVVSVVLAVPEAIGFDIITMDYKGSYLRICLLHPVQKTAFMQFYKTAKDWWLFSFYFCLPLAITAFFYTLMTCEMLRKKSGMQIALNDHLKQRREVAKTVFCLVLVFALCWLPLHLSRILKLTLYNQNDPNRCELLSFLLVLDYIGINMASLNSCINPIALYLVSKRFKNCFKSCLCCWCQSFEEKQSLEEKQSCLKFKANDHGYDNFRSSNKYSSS
test.name: Binding affinity measured in CHO cells stably transfected with the human endothelin B receptor
Square brackets hold non-standard residues; d marks the D form. Peptide text beside a SMILES is read from it. * marks the point of attachment. Dip = N[C@H](C(=O)O)C(c1ccccc1)c1ccccc1; Bz = O=C(c1ccccc1)*
measured.property: IC50 (nM)
One number for each entry, in nM.

Illustrative cases are given below, each with its answer.
CC[C@H](C)[C@H](NC(=O)[C@H](CCC(=O)O)NC(=O)[C@H](CC(C)C)NC(=O)[C@@H](NC(C)=O)C(c1ccccc1)c1ccccc1)C(=O)N[C@H](C(=O)N[C@@H](Cc1c[nH]c2ccccc12)C(=O)O)[C@@H](C)CC (Ac-[Dip]LEIIW-OH)	1800
CC[C@H](C)[C@H](NC(=O)[C@H](CC(=O)O)NC(=O)[C@H](CC(C)C)NC(=O)[C@@H](NC(=O)c1ccccc1)C(c1ccccc1)c1ccccc1)C(=O)N[C@H](C(=O)N[C@@H](Cc1c[nH]c2ccccc12)C(=O)O)[C@@H](C)CC (Bz-[Dip]LDIIW-OH)	4400
CC[C@H](C)[C@H](NC(=O)[C@H](CC(=O)O)NC(=O)[C@H](CCCNC(=N)N)NC(=O)[C@H](NC(C)=O)C(c1ccccc1)c1ccccc1)C(=O)N[C@H](C(=O)N[C@@H](Cc1c[nH]c2ccccc12)C(=O)O)[C@@H](C)CC	590

query: Bench note: what IC50 did CC[C@H](C)[C@H](NC(=O)[C@H](Cc1ccccc1)NC(=O)[C@H](CC(=O)O)NC(=O)[C@H](CC(C)C)NC(=O)[C@@H](NC(C)=O)C(c1ccccc1)c1ccccc1)C(=O)N[C@@H](Cc1c[nH]c2ccccc12)C(=O)O (Ac-[Dip]LDFIW-OH) show?
result: 900
